Recorded IC50, one value per entry.
Biological target: integrin α4β7 (RPMI-8866 cells) binding with rat MAdCAM-1/human IgG1 chimera protein (Homo sapiens, UniProt P13612+P26010)
Construct: lymphoma cell strain RPMI-8866 of human B cells, known to express integrin α4β7; endogenous in cells
Sequence (P13612 34-1032, change not shown): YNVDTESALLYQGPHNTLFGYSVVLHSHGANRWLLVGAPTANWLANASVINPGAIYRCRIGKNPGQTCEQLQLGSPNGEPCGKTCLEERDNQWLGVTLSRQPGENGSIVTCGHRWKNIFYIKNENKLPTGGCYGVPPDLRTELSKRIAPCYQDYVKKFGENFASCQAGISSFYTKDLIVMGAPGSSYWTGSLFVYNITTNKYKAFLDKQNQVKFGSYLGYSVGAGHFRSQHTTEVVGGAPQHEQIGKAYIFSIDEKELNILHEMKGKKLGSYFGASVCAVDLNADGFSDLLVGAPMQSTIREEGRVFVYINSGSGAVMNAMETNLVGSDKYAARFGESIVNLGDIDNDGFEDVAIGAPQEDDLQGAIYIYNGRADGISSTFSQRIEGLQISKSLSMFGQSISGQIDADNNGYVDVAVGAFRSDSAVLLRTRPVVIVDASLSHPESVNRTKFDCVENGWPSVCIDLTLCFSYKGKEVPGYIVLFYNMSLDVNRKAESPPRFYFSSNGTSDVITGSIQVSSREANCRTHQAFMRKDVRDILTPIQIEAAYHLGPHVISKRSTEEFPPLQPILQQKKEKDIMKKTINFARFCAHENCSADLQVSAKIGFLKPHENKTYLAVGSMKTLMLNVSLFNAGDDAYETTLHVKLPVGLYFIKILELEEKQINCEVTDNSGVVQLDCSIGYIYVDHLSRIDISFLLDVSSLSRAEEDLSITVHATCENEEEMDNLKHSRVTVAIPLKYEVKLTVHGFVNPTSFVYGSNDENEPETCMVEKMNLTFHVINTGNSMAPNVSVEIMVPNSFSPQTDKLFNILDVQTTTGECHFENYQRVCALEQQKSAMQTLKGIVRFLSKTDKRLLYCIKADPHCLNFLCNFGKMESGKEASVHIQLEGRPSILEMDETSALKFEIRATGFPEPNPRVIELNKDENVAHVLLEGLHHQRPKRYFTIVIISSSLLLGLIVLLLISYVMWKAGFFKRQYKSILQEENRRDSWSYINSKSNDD
Sequence (P26010 20-798, change not shown): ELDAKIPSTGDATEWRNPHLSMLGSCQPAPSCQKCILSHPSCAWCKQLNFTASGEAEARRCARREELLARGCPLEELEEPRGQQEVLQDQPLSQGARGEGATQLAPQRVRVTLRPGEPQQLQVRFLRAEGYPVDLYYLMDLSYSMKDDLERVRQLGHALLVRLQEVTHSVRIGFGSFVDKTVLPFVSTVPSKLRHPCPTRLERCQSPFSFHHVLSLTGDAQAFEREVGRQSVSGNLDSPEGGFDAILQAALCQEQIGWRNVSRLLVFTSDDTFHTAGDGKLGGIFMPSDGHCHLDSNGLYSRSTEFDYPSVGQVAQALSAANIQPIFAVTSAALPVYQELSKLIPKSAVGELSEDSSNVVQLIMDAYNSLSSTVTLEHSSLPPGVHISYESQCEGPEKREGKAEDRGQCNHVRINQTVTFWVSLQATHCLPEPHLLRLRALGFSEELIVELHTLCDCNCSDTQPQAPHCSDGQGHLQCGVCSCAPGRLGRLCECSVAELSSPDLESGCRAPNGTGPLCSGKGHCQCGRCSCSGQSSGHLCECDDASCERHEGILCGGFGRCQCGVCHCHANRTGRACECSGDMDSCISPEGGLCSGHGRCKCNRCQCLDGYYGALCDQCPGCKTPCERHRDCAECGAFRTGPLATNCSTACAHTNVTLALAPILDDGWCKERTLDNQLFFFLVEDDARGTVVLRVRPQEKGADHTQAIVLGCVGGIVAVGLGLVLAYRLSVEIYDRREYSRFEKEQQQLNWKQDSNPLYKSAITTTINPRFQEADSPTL
Experiment: Rat MAdCAM-1 antagonistic activity (rat MAdCAM-1/α4β7 binding assay), RPMI-8866 cell adhesion
Conditions: 4 mM MnCl2, read-out: MadCAM/α 4 β 7 antagonistic activity to integrin (IC50)
quantity-measured: IC50

chemical_smiles=O=C(O)[C@H](Cc1ccc(OCc2c(Cl)cccc2Cl)cc1)NC(=O)[C@H]1CC[C@H](C(=O)NNc2ccc(Br)cc2)CC1 quantity_measured=IC50 assay_value="200 to 1000 nM"
chemical_smiles=O=C(O)[C@H](Cc1ccc(OCc2c(Cl)cccc2Cl)cc1)NC(=O)[C@H]1CC[C@H](C(=O)NCc2ccccc2)CC1 quantity_measured=IC50 assay_value="1000 to 5000 nM"
chemical_smiles=O=C(O)[C@H](Cc1ccc(OCc2c(Cl)cccc2Cl)cc1)NC(=O)[C@H]1CC[C@H](C(=O)NNc2ccccc2)CC1 quantity_measured=IC50 assay_value="200 to 1000 nM"
chemical_smiles=O=C(O)[C@H](Cc1ccc(OCc2c(Cl)cccc2Cl)cc1)NC(=O)[C@H]1CC[C@H](C(=O)NNc2ccc(OC(F)(F)F)cc2)CC1 quantity_measured=IC50 assay_value="1000 to 5000 nM"
chemical_smiles=COc1ccc(NNC(=O)[C@H]2CC[C@H](C(=O)N[C@@H](Cc3ccc(OCc4c(Cl)cccc4Cl)cc3)C(=O)O)CC2)cc1 quantity_measured=IC50 assay_value="200 to 1000 nM"
chemical_smiles=O=C(Nc1ccc(C[C@H](NC(=O)[C@H]2CC[C@H](C(=O)O)CC2)C(=O)O)cc1)c1snnc1-c1ccccc1 quantity_measured=IC50 assay_value="1000 to 5000 nM"
chemical_smiles=Cc1ccc(NNC(=O)[C@H]2CC[C@H](C(=O)N[C@@H](Cc3ccc(OCc4c(Cl)cccc4Cl)cc3)C(=O)O)CC2)cc1 quantity_measured=IC50 assay_value="200 to 1000 nM"
chemical_smiles=COc1cccc(NNC(=O)[C@H]2CC[C@H](C(=O)N[C@@H](Cc3ccc(OCc4c(Cl)cccc4Cl)cc3)C(=O)O)CC2)c1 quantity_measured=IC50 assay_value="200 to 1000 nM"
chemical_smiles=COc1ccc(NNC(=O)[C@H]2CC[C@H](C(=O)N[C@@H](Cc3ccc(NC(=O)c4snnc4-c4ccccc4)cc3)C(=O)O)CC2)cc1 quantity_measured=IC50 assay_value="1000 to 5000 nM"
chemical_smiles=COc1cccc(OC)c1-c1ccc(C[C@H](NC(=O)[C@H]2CC[C@H](C(=O)O)CC2)C(=O)O)cc1 quantity_measured=IC50 assay_value="1000 to 5000 nM"
chemical_smiles=COc1ccc(NNC(=O)[C@H]2CC[C@H](C(=O)N[C@@H](Cc3ccc(-c4c(OC)cccc4OC)cc3)C(=O)O)CC2)cc1 quantity_measured=IC50 assay_value="200 to 1000 nM"
chemical_smiles=O=C(O)[C@H](Cc1ccc(OCc2c(Cl)cccc2Cl)cc1)NC(=O)[C@H]1CC[C@H](C(=O)O)CC1 quantity_measured=IC50 assay_value="≤ 200 nM"
